# TESTED TARGET: KIF5B-RET-BaF3 (Homo sapiens, UniProt P07949)
# Construct: fused on or other part: P33176 (Kinesin-1 heavy chain)
# Sequence (P07949 whole entry, change not shown, the tested form may be a part): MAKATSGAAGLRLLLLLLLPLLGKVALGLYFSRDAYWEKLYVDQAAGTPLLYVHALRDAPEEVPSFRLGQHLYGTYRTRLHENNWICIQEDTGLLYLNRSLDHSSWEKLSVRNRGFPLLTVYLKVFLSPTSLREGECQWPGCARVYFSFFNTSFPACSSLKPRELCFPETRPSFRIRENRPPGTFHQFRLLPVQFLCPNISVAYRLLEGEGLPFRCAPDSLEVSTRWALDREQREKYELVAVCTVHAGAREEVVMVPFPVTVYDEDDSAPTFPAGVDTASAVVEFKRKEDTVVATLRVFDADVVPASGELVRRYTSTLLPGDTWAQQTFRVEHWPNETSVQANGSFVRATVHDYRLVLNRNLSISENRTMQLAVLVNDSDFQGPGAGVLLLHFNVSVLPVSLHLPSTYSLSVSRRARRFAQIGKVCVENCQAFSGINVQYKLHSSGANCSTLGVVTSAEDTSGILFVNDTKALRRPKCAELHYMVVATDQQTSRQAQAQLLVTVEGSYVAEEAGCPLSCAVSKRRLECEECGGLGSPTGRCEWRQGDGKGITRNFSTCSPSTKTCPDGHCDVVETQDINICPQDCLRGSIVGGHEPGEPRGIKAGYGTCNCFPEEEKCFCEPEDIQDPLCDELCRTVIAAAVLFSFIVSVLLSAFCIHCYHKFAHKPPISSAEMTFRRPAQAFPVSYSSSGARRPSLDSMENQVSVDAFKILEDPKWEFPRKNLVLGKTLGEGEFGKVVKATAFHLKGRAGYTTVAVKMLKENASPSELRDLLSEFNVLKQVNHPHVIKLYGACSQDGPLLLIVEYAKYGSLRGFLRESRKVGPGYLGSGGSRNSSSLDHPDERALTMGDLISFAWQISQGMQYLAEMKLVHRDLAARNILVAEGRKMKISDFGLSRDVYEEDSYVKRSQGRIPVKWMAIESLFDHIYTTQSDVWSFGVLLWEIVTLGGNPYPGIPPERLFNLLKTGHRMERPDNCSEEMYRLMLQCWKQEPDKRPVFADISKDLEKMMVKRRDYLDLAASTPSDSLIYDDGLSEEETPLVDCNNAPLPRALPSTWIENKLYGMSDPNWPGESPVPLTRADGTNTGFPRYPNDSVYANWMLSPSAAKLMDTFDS
# PROTOCOL TEXT: Growth inhibition of KIF5B-RET-BaF3 cells stably transfected with kinase (MTS)
# Assay type: cell-based
# MEASUREMENT SETUP: 48 h, read-out: KIF5B-RET (IC50/nM)
# Protocol: Growth inhibitory activity of compounds on cell lines stably transfected with kinase The activity of compounds against kinase RET is evaluated by their effect of inhibiting growth of cell lines stably transfected with kinase CCDC6-RET-BaF3, KIF5B-RET-BaF3, and wild-type BaF3 (Proc. Natl. Acad. Sci. USA., 2006, 103, 3153-8.). The growth of the cell lines stably transfected with kinase CCDC6-RET-BaF3, KIF5B-RET-BaF3 depends on their kinase activity. […]
Listing of recorded GI50 by entry.
Numeric only. Scale: nM

Solved cases (6 shown):
Cc1ccc(Oc2nc(-c3ccc(N)cc3)nc3nn(C)cc23)cc1C(=O)Nc1ccc(CN2CCN(C)CC2)c(C(F)(F)F)c1 [IV-n-9] :: 1570
Cc1ccc(C(=O)Nc2ccc(CN3CCN(C)CC3)c(C(F)(F)F)c2)cc1Oc1nc(-c2ccsc2)nc2ccn(C)c12 [III-m-18] :: 2680
Cc1ccc(Oc2nc(-c3ccncc3)nc3ccn(C)c23)cc1C(=O)Nc1cc(CN2CCN(C)CC2)cc(C(F)(F)F)c1 [III-r-4] :: 325
Cc1ccc(Oc2cc(-c3cccnc3)nc3sccc23)cc1C(=O)Nc1ccc(CN2CCN(C)CC2)c(C(F)(F)F)c1 [VII-n-1] :: 1780
Cc1ccc(NC(=O)c2ccc(CN3CCN(C)CC3)c(C(F)(F)F)c2)cc1Oc1cc(-c2ccncc2)nc2sccc12 [VII-i-2] :: 1330
Cc1ccc(C(=O)Nc2cc(CN3CCN(C)CC3)cc(C(F)(F)F)c2)cc1Oc1nc(-c2cccnc2)nc2cc[nH]c12 [III-q-1] :: 1540

Q: Indicate its recorded GI50; the compound in question is Cc1ccc(C(=O)Nc2ccc(CN3CCN(C)CC3)c(C(F)(F)F)c2)cc1Oc1nc(-c2ccc(Cl)cc2)nc2c1cnn2C [II-m-6]
Result: 114
